target: Histamine H4 receptor (Rattus norvegicus)
Sequence (Q91ZY1 whole entry): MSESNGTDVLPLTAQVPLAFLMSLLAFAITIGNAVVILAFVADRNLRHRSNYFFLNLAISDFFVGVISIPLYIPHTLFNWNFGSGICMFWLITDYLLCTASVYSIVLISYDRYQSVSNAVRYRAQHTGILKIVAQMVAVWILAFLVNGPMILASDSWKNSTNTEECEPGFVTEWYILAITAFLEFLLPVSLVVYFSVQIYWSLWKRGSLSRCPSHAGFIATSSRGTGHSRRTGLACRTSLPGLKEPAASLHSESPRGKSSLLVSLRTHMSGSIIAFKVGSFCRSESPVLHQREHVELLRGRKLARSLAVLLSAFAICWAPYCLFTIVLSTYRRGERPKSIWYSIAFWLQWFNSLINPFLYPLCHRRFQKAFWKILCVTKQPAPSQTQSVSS
Measurement Kind: Ki (nM)
Form entry: value (nM) — number only.

Give a short answer stating reported Ki for CN[C@@H]1CCN(c2nc(N)nc3c2CCCC32CCCC2)C1 .
2.63

* * *

I'd appreciate it if you could supply Ki values for the items below.
Form entry: value (nM) — number only.

Report Ki under test system Histamine H3 receptor (Rattus norvegicus) for CN[C@@H]1CCN(c2nc(N)nc3c2CCCC(c2ccccc2)C3)C1 (stereo partly drawn) .
105

Report Ki under test system Histamine H3 receptor (Rattus norvegicus) for CN[C@@H]1CCN(c2nc(N)nc3c2CCCC32CCCC2)C1 .
72.4

Report Ki under test system Histamine H3 receptor (Rattus norvegicus) for Nc1nc(N2CC[C@@H](N)C2)c2c(n1)C1(CCCC1)CCC2 .
79.4

* * *

biological target: Histamine H4 receptor (Homo sapiens); settings: HEK293
Sequence (Q9H3N8 whole entry): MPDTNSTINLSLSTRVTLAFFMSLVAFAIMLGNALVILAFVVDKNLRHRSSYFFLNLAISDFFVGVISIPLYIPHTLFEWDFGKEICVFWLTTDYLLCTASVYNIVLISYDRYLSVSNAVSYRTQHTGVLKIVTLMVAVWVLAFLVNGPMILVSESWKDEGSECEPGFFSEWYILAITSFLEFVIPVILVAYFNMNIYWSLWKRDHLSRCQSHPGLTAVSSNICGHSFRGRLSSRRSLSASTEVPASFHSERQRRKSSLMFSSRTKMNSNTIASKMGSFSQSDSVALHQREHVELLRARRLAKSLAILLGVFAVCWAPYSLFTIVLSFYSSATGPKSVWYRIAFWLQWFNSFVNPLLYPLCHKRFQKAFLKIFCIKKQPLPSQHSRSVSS
I'd appreciate it if you could supply pKb values for the items below.

Give a short answer stating reported pKb for Nc1nc(N2CC[C@@H](N)C2)c2c(n1)C1(CCCC1)CCC2 .
8.57

Give a short answer stating reported pKb for Nc1nc(N2CCCNCC2)c2c(n1)C1(CCCC1)CCC2 .
8.01

Give a short answer stating reported pKb for Nc1nc(N2CC[C@@H](N)C2)c2c(n1)C1(CCCCC1)CCC2 .
7.33

Give a short answer stating reported pKb for Nc1nc2c(c(N3CCNCC3)n1)CCCCC2c1ccccc1 (stereo not drawn) .
7.24

Give a short answer stating reported pKb for Nc1nc(N2CCNCC2)c2c(n1)C1(CCCCC1)CCC2 .
7.32

Give a short answer stating reported pKb for CN[C@@H]1CCN(c2nc(N)nc3c2CCCC32CCCC2)C1 .
8.54

Give a short answer stating reported pKb for CNC1CN(c2nc(N)nc3c2CCCC32CCCC2)C1 .
8.34

Give a short answer stating reported pKb for CN1CCC(Oc2nc(N)nc3c2CCCC32CCCC2)CC1 .
7.7

Give a short answer stating reported pKb for Nc1nc(N2CC(N)C2)c2c(n1)C1(CCCC1)CCC2 .
< 4.16

Give a short answer stating reported pKb for CN(C)CCOc1nc(N)nc2c1CCCC21CCCC1 .
8.11

Give a short answer stating reported pKb for Nc1nc(N2CCNCC2)c2c(n1)C1(CCC2)Cc2ccccc2C1 .
4.57

Give a short answer stating reported pKb for Nc1nc(N2C[C@H]3CCCN[C@H]3C2)c2c(n1)C1(CCCCC1)CCC2 .
7

Give a short answer stating reported pKb for COC(=O)C1(N)CCN(c2nc(N)nc3c2CCCC32CCCC2)CC1 .
4.9

* * *

I'd appreciate it if you could supply pKb values for the items below.
biological target: Histamine H4 receptor (Rattus norvegicus); assay: Antagonist activity at rat histamine H4 receptor assessed as decrease in intracellular calcium by FLIPR; type: functional, cell-based

Give a short answer stating reported pKb for CN1CCC(Oc2nc(N)nc3c2CCCC32CCCC2)CC1 .
< 5.48

Give a short answer stating reported pKb for CN[C@@H]1CCN(c2nc(N)nc3c2CCCC32CCCC2)C1 .
7.48

Give a short answer stating reported pKb for Nc1nc(N2CC[C@@H](N)C2)c2c(n1)C1(CCCC1)CCC2 .
6.76

Give a short answer stating reported pKb for Nc1nc(N2CC[C@@H](N)C2)c2c(n1)C1(CCC2)Cc2ccccc2C1 .
6.09

Give a short answer stating reported pKb for COC(=O)C1(N)CCN(c2nc(N)nc3c2CCCC32CCCC2)CC1 .
4.77

Give a short answer stating reported pKb for Nc1nc(N2CCC(N)(C(=O)O)CC2)c2c(n1)C1(CCCC1)CCC2 .
< 4.68

Give a short answer stating reported pKb for CN1CCC(Nc2nc(N)nc3c2CCCC32CCCC2)CC1 .
6.9

Give a short answer stating reported pKb for Nc1nc(N2CC[C@H](N)C2)c2c(n1)C1(CCCC1)CCC2 .
6.87

Give a short answer stating reported pKb for Nc1nc(N2C[C@H]3CNC[C@H]3C2)c2c(n1)C1(CCCC1)CCC2 (stereo in doubt; 33) .
5.13

Give a short answer stating reported pKb for Nc1nc(N2CCNCC2)c2c(n1)C1(CCC2)Cc2ccccc2C1 .
4.86

Give a short answer stating reported pKb for Nc1nc(N2C[C@H]3CCCN[C@H]3C2)c2c(n1)C1(CCCCC1)CCC2 .
5.81

* * *

test: Lipophilicity, log D at pH7.5; type: physicochemical; conditions: buffer, pH 7.5
Measurement Kind: logD
Lab note: record just the number, no unit beside it.

Give a short answer stating reported logD for Nc1nc(N2CCNCC2)c2c(n1)C1(CCCC1)CCC2 .
2.2

Give a short answer stating reported logD for CNC1CN(c2nc(N)nc3c2CCCCC3c2ccccc2)C1 (centres undefined) .
2.05

Give a short answer stating reported logD for CNC1CN(c2nc(N)nc3c2CCCC32CCCC2)C1 .
1.6

Give a short answer stating reported logD for Nc1nc2c(c(N3CCNCC3)n1)CCCCC2c1ccccc1 (centres undefined) .
1.73

* * *

biological target: Histamine H4 receptor (Rattus norvegicus) (UniProt Q91ZY1); assay: Antagonist activity at rat histamine H4 receptor assessed as decrease in intracellular calcium by FLIPR relative to histamine; format: functional, cell-based; design: concentration or dose not given beside the values
Sequence (Q91ZY1 whole entry): as the sequence (Q91ZY1 whole entry) above
The label is condition met for Activity below 60% and condition not met for Activity equal to or exceeding 60%.

Below 60% on Activity? Entry Nc1nc(N2CC[C@@H](N)C2)c2c(n1)C1(CCCCC1)CCC2
condition not met

Below 60% on Activity? Entry COC(=O)C1(N)CCN(c2nc(N)nc3c2CCCC32CCCC2)CC1
condition met

Below 60% on Activity? Entry Nc1nc(N2CCNCC2)c2c(n1)C1(CCCCC1)CCC2
condition not met

Below 60% on Activity? Entry CN[C@@H]1CCN(c2nc(N)nc3c2CCCC32CCCC2)C1
condition met

Below 60% on Activity? Entry Nc1nc(N2CCNCC2)c2c(n1)C1(CCCC1)CCC2
condition not met

Below 60% on Activity? Entry Nc1nc(N2CC[C@@H](N)C2)c2c(n1)C1(CCCC1)CCC2
condition not met

Below 60% on Activity? Entry Nc1nc(N2CC(N)C2)c2c(n1)C1(CCCC1)CCC2
condition met

Below 60% on Activity? Entry CNC1CN(c2nc(N)nc3c2CCCC32CCCC2)C1
condition met

Below 60% on Activity? Entry Nc1nc(N2CC[C@H](N)C2)c2c(n1)C1(CCCC1)CCC2
condition not met

Below 60% on Activity? Entry Nc1nc(N2C[C@H]3CCCN[C@H]3C2)c2c(n1)C1(CCCC1)CCC2
condition met

Below 60% on Activity? Entry CN(C)CCOc1nc(N)nc2c1CCCC21CCCC1
condition not met

Below 60% on Activity? Entry CN1CCC(Nc2nc(N)nc3c2CCCC32CCCC2)CC1
condition not met

Below 60% on Activity? Entry Nc1nc(N2C[C@H]3CCCN[C@H]3C2)c2c(n1)C1(CCCCC1)CCC2
condition met

* * *

target: Histamine H4 receptor (Homo sapiens); conditions: HEK293
Use 7 as the dividing line for pKb, with the line itself on the Y side and lower values as N.

Is it the case that Nc1nc(N2CCC(N)(C(=O)O)CC2)c2c(n1)C1(CCCC1)CCC2 has pKb reaching or exceeding 7?
N

Is it the case that Nc1nc(N2CC[C@@H](N)C2)c2c(n1)C1(CCC2)Cc2ccccc2C1 has pKb reaching or exceeding 7?
N

Is it the case that CN1CCC(Nc2nc(N)nc3c2CCCC32CCCC2)CC1 has pKb reaching or exceeding 7?
Y

Is it the case that Nc1nc(N2C[C@H]3CNC[C@H]3C2)c2c(n1)C1(CCCC1)CCC2 (stereo in doubt; 34) has pKb reaching or exceeding 7?
N

Is it the case that Nc1nc2c(c(N3CC4CCCNC4C3)n1)CCCCC2c1ccccc1 (stereo not given) has pKb reaching or exceeding 7?
Y

Is it the case that Nc1nc(N2CCNCC2)c2c(n1)C1(CCCC1)CCC2 has pKb reaching or exceeding 7?
Y

Is it the case that Nc1nc(N2CC[C@H](N)C2)c2c(n1)C1(CCCC1)CCC2 has pKb reaching or exceeding 7?
Y

Is it the case that Nc1nc2c(c(N3C[C@H]4CCCN[C@H]4C3)n1)CCCCC2c1ccccc1 (stereo not given in full) has pKb reaching or exceeding 7?
Y

Is it the case that Nc1nc(N2C[C@H]3CCCN[C@H]3C2)c2c(n1)C1(CCCC1)CCC2 has pKb reaching or exceeding 7?
Y

Is it the case that Nc1nc(N2C[C@H]3CNC[C@H]3C2)c2c(n1)C1(CCCC1)CCC2 (stereo in doubt; 33) has pKb reaching or exceeding 7?
N

* * *

Measurement Kind: pKi
Friendly reminder that pKi comes from taking -log10 of the concentration in mol/L.

Report pKi under test system UniProt Q9Y5N1 for Nc1nc(N2CC[C@@H](N)C2)c2c(n1)C1(CCCC1)CCC2 .
Sequence (Q9Y5N1 whole entry): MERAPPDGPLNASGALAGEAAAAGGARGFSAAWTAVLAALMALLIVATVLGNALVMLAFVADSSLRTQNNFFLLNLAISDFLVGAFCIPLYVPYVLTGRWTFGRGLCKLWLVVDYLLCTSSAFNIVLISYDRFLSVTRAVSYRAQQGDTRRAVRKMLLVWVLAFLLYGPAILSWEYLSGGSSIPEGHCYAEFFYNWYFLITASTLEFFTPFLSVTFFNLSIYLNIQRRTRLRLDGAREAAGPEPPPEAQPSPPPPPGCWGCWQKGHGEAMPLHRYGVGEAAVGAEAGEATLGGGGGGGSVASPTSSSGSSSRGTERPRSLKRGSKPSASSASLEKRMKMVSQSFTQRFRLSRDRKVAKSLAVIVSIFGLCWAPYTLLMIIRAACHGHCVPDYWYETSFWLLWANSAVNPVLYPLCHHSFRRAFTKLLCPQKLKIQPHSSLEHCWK
6.53
